target: T1, Anti-CD28 Fab (SEQ ID NOs: 696, 697); test: phage binding ELISA; biotinylated anti-CD28 Fab on neutravidin plate, clonal phage supernatant, anti-M13 HRP
T1 construct: In the phage ELISA the Fab was biotinylated and captured on neutravidin coated plates
T1 sequence (VH, as listed by the source, chain 1 of 2): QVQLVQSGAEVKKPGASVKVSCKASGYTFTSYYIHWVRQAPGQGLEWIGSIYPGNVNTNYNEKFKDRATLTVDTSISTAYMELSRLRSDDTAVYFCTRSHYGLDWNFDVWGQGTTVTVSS
T1 sequence (VL, as listed by the source, chain 2 of 2): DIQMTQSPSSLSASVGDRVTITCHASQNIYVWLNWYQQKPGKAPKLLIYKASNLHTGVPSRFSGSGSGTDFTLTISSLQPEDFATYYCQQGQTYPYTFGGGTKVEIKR
Readout Type: Anti-CD28 Fab (SEQ ID NOs: 696, 697) signal

MCSAGAMYKWPLCL (Clonal phage of the Peptide-92 library, tested as crude supernatant; not shown: fused to the pIII filament of the bacteriophage) [Phage-1359]; 2.32
LCSAGAMYSWPTCL (Clonal phage of the Peptide-92 library, tested as crude supernatant; not shown: fused to the pIII filament of the bacteriophage) [Phage-1356]; 2.39
TCAAGAHYPWPACL (Clonal phage of the Peptide-92 library, tested as crude supernatant; not shown: fused to the pIII filament of the bacteriophage) [Phage-1351]; 1.92
